Tested on: 993429-296-R-J1-PDC complex spheroid growth, percent test/control;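 note: spheroids exposed to compounds for seven days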
Test: Anticancer human tumor 993429-296-R-J1-PDC patient-derived uterine sarcoma cell line growth inhibition [Asc]
Settings: curve of first compound; second compound 1 µM
# Lookup of reported pIC50 keyed by entry
Just so you know, pIC50 here is -log10 of the concentration in molar units; reply with that number alone.

Example results:
| molecule | target.or.test.system | reading |
| --- | --- | --- |
| Cn1ncnc1[C@H]1c2n[nH]c(=O)c3cc(F)cc(c23)N[C@@H]1c1ccc(F)cc1 + Cc1c(S(C)(=O)=O)c(-c2cc(F)cc(N3CCN(c4ccc(NS(=O)(=O)c5ccc(NC(CCN6CCC(C(=O)OCCCP(=O)(O)O)CC6)CSc6ccccc6)c(S(=O)(=O)C(F)(F)F)c5)cc4)CC3)c2)c(-c2ccc(Cl)cc2)n1C(C)C | 993429-296-R-J1-PDC complex spheroid growth, percent test/control | 8.42 |
| O=C(c1ccc(F)c(F)c1Nc1ccc(I)cc1F)N1CC(O)([C@@H]2CCCCN2)C1 + CNC(C)C(=O)NC1CN(S(=O)(=O)c2cccc(S(=O)(=O)N3CCC4CCC(C(=O)NC(c5ccccc5)c5ccccc5)N4C(=O)C(NC(=O)C(C)NC)C3)c2)CCC2CCC(C(=O)NC(c3ccccc3)c3ccccc3)N2C1=O | 993429-296-R-J1-PDC complex spheroid growth, percent test/control | 7.94 |

// below: pIC50 requested for another molecule
Exam item: Quick check: pIC50 of C=C(F)C(=O)N1CCN(c2nc(OCC3CCCN3C)nc3c2CCN(c2cccc4cccc(Cl)c24)C3)CC1CC#N (stereo not given) + Cc1c(S(C)(=O)=O)c(-c2cc(F)cc(N3CCN(c4ccc(NS(=O)(=O)c5ccc(NC(CCN6CCC(C(=O)OCCCP(=O)(O)O)CC6)CSc6ccccc6)c(S(=O)(=O)C(F)(F)F)c5)cc4)CC3)c2)c(-c2ccc(Cl)cc2)n1C(C)C ?
Marked response: 6.49

Values from PubChem BioAssay AID1963446
